System: β-lactamase produced by Klebsiella oxytoca TN 1719
Assay: stability to β-lactamase (relative ratio of hydrolysis rate)
Assay type: biochemical
Conditions: PCG rated at 100
Below, each entry is listed with its recorded Relative ratio of hydrolysis rate.

Molecule: CC(N)C(=O)NC(C)C(=O)NC(CCCNC(=N)N)C(O)CC(=O)OCC1=C(C(=O)O)N2C(=O)C(NC=O)(NC(=O)CCCC(N)C(=O)O)C2SC1 (stereo not drawn)
Relative ratio of hydrolysis rate: < 0.01
//
Molecule: CC(N)C(=O)NC(CCCNC(=N)N)C(O)CC(=O)OCC1=C(C(=O)O)N2C(=O)C(NC=O)(NC(=O)CCCC(N)C(=O)O)C2SC1 (stereo not drawn)
Relative ratio of hydrolysis rate: < 0.01
//
Molecule: O=C(Cc1cccs1)N[C@@H]1C(=O)N2C(C(=O)[O-])=C(C[n+]3ccccc3)CS[C@H]12 [CER, cephaloridine, reference compound]
Relative ratio of hydrolysis rate: 30

====

Assay: solubility
Format: physicochemical
Conditions: dimethylsulfoxide, methanol, acetone, ethyl acetate

Compound: CC(N)C(=O)NC(C)C(=O)NC(CCCNC(=N)N)C(O)CC(=O)OCC1=C(C(=O)O)N2C(=O)C(NC(=O)CCCC(N)C(=O)O)C2SC1 (stereo not drawn)
Solubility: Hardly soluble

Compound: CC(N)C(=O)NC(C)C(=O)NC(C)C(=O)NC(CCCNC(=N)N)C(O)CC(=O)OCC1=C(C(=O)O)N2C(=O)C(NC(=O)CCCC(N)C(=O)O)C2SC1 (stereo not drawn)
Solubility: Hardly soluble

Compound: CC(N)C(=O)NC(CCCNC(=N)N)C(O)CC(=O)OCC1=C(C(=O)O)N2C(=O)C(NC=O)(NC(=O)CCCC(N)C(=O)O)C2SC1 (stereo not drawn)
Solubility: Hardly soluble

====

Tested on: β-lactamase produced by Proteus vulgalis GN 4413
Assay: stability to β-lactamase (relative ratio of hydrolysis rate)
Type: biochemical
Conditions: CER rated at 100
A collection of compounds and their measured Relative ratio of hydrolysis rate

Compound: CCN1CCN(C(=O)N[C@@H](C(=O)N[C@@H]2C(=O)N3C(C(=O)O)=C(CSc4nnnn4C)CS[C@H]23)c2ccc(O)cc2)C(=O)C1=O [CPZ, cefoperazone, reference compound]
Relative ratio of hydrolysis rate: 10.5
//
Compound: O=C(Cc1cccs1)N[C@@H]1C(=O)N2C(C(=O)[O-])=C(C[n+]3ccccc3)CS[C@H]12 [CER, cephaloridine, reference compound]
Relative ratio of hydrolysis rate: 100
//
Compound: CC(N)C(=O)NC(C)C(=O)NC(C)C(=O)NC(CCCNC(=N)N)C(O)CC(=O)OCC1=C(C(=O)O)N2C(=O)C(NC=O)(NC(=O)CCCC(N)C(=O)O)C2SC1 (stereo not drawn)
Relative ratio of hydrolysis rate: < 0.01
//
Compound: CC(N)C(=O)NC(CCCNC(=N)N)C(O)CC(=O)OCC1=C(C(=O)O)N2C(=O)C(NC=O)(NC(=O)CCCC(N)C(=O)O)C2SC1 (stereo not drawn)
Relative ratio of hydrolysis rate: < 0.01
//
Compound: CC(N)C(=O)NC(C)C(=O)NC(CCCNC(=N)N)C(O)CC(=O)OCC1=C(C(=O)O)N2C(=O)C(NC=O)(NC(=O)CCCC(N)C(=O)O)C2SC1 (stereo not drawn)
Relative ratio of hydrolysis rate: < 0.01
//
Compound: CC1(C)S[C@@H]2[C@H](NC(=O)Cc3ccccc3)C(=O)N2[C@H]1C(=O)O [PCG, benzylpenicillin, reference compound]
Relative ratio of hydrolysis rate: 16
